test_parameters: in n-octanol, 302.85 K
observed_property: solubility (mole fraction)
Could you keep your reply to the number by itself?

input: What measured solubility (mole fraction) goes with O=C(O)c1ccc(O)cc1 ?
output: 0.11

* * *

test_parameters: in n-octanol, 321.55 K
Please respond with reported solubility (mole fraction) for every item in the list.
Could you keep your reply to the number by itself?

input: What measured solubility (mole fraction) goes with Cc1ccccc1C(=O)O ?
output: 0.305

input: What measured solubility (mole fraction) goes with Cc1ccc(C(=O)O)cc1 ?
output: 0.103

* * *

test_parameters: in n-octanol, 308.95 K
observed_property: solubility (mole fraction)
Could you keep your reply to the number by itself?

input: What measured solubility (mole fraction) goes with Cc1ccccc1C(=O)O ?
output: 0.219

* * *

test_parameters: in n-octanol, 315.45 K
observed_property: solubility (mole fraction)

input: What measured solubility (mole fraction) goes with O=C(O)c1ccc(O)cc1 ?
output: 0.122

* * *

test_parameters: in n-octanol, 315.8 K
observed_property: solubility (mole fraction)
Could you keep your reply to the number by itself?

input: What measured solubility (mole fraction) goes with Cc1ccc(C(=O)O)cc1 ?
output: 0.0925

* * *

test_parameters: in n-octanol, 309.25 K
observed_property: solubility (mole fraction)
Could you keep your reply to the number by itself?

input: What measured solubility (mole fraction) goes with O=C(O)c1ccccc1[N+](=O)[O-] ?
output: 0.113

* * *

test_parameters: in n-octanol, 308.35 K
observed_property: solubility (mole fraction)
Could you keep your reply to the number by itself?

input: What measured solubility (mole fraction) goes with O=C(O)c1ccccc1[N+](=O)[O-] ?
output: 0.108

* * *

test_parameters: in n-octanol, 319.85 K
observed_property: solubility (mole fraction)
Could you keep your reply to the number by itself?

input: What measured solubility (mole fraction) goes with O=C(O)c1ccccc1[N+](=O)[O-] ?
output: 0.154

* * *

test_parameters: in n-octanol, 317.15 K
observed_property: solubility (mole fraction)
Could you keep your reply to the number by itself?

input: What measured solubility (mole fraction) goes with O=C(O)c1ccccc1[N+](=O)[O-] ?
output: 0.141

* * *

test_parameters: in n-octanol, 306.15 K
observed_property: solubility (mole fraction)
Could you keep your reply to the number by itself?

input: What measured solubility (mole fraction) goes with O=C(O)c1ccccc1[N+](=O)[O-] ?
output: 0.101

* * *

test_parameters: in n-octanol, 301.15 K
observed_property: solubility (mole fraction)
Could you keep your reply to the number by itself?

input: What measured solubility (mole fraction) goes with Cc1ccccc1C(=O)O ?
output: 0.18

* * *

test_parameters: in n-octanol, 304.25 K
observed_property: solubility (mole fraction)
Could you keep your reply to the number by itself?

input: What measured solubility (mole fraction) goes with O=C(O)c1ccc(O)cc1 ?
output: 0.112

* * *

test_parameters: in n-octanol, 318.75 K
observed_property: solubility (mole fraction)
Could you keep your reply to the number by itself?

input: What measured solubility (mole fraction) goes with Cc1ccccc1C(=O)O ?
output: 0.281

* * *

test_parameters: in n-octanol, 309.65 K
observed_property: solubility (mole fraction)
Could you keep your reply to the number by itself?

input: What measured solubility (mole fraction) goes with Cc1ccc(C(=O)O)cc1 ?
output: 0.0816

* * *

test_parameters: in n-octanol, 297.35 K
observed_property: solubility (mole fraction)

input: What measured solubility (mole fraction) goes with Cc1ccc(C(=O)O)cc1 ?
output: 0.0595

* * *

test_parameters: in n-octanol, 307.25 K
observed_property: solubility (mole fraction)
Could you keep your reply to the number by itself?

input: What measured solubility (mole fraction) goes with Cc1ccc(C(=O)O)cc1 ?
output: 0.0767

* * *

test_parameters: in n-octanol, 315.75 K
observed_property: solubility (mole fraction)
Could you keep your reply to the number by itself?

input: What measured solubility (mole fraction) goes with Cc1ccccc1C(=O)O ?
output: 0.26

* * *

test_parameters: in n-octanol, 316.95 K
observed_property: solubility (mole fraction)
Could you keep your reply to the number by itself?

input: What measured solubility (mole fraction) goes with Cc1ccccc1C(=O)O ?
output: 0.271

* * *

test_parameters: in n-octanol, 320.55 K
observed_property: solubility (mole fraction)

input: What measured solubility (mole fraction) goes with O=C(O)c1ccc(O)cc1 ?
output: 0.128

* * *

test_parameters: in n-octanol, 312.95 K
observed_property: solubility (mole fraction)
Could you keep your reply to the number by itself?

input: What measured solubility (mole fraction) goes with Cc1ccc(C(=O)O)cc1 ?
output: 0.0871

* * *

test_parameters: in n-octanol, 320.35 K
observed_property: solubility (mole fraction)
Could you keep your reply to the number by itself?

input: What measured solubility (mole fraction) goes with Cc1ccccc1C(=O)O ?
output: 0.294

* * *

Please respond with reported solubility (mole fraction) for every item in the list.
test_parameters: in n-octanol, 318.65 K
Could you keep your reply to the number by itself?

input: What measured solubility (mole fraction) goes with O=C(O)c1ccccc1[N+](=O)[O-] ?
output: 0.147

input: What measured solubility (mole fraction) goes with O=C(O)c1ccc(O)cc1 ?
output: 0.126

* * *

test_parameters: in n-octanol, 299.95 K
observed_property: solubility (mole fraction)
Could you keep your reply to the number by itself?

input: What measured solubility (mole fraction) goes with O=C(O)c1ccc(O)cc1 ?
output: 0.107

* * *

test_parameters: in n-octanol, 301.65 K
observed_property: solubility (mole fraction)
Could you keep your reply to the number by itself?

input: What measured solubility (mole fraction) goes with Cc1ccc(C(=O)O)cc1 ?
output: 0.0663

* * *

Please respond with reported solubility (mole fraction) for every item in the list.
test_parameters: in n-octanol, 313.15 K
Could you keep your reply to the number by itself?

input: What measured solubility (mole fraction) goes with O=C(O)c1ccccc1[N+](=O)[O-] ?
output: 0.129

input: What measured solubility (mole fraction) goes with O=C(O)c1ccc(O)cc1 ?
output: 0.121

* * *

test_parameters: in n-octanol, 322.25 K
observed_property: solubility (mole fraction)
Could you keep your reply to the number by itself?

input: What measured solubility (mole fraction) goes with O=C(O)c1ccc(O)cc1 ?
output: 0.13

* * *

test_parameters: in n-octanol, 301.45 K
observed_property: solubility (mole fraction)
Could you keep your reply to the number by itself?

input: What measured solubility (mole fraction) goes with O=C(O)c1ccc(O)cc1 ?
output: 0.109

* * *

test_parameters: in n-octanol, 305.35 K
observed_property: solubility (mole fraction)
Could you keep your reply to the number by itself?

input: What measured solubility (mole fraction) goes with Cc1ccccc1C(=O)O ?
output: 0.197

* * *

test_parameters: in n-octanol, 319.65 K
observed_property: solubility (mole fraction)
Could you keep your reply to the number by itself?

input: What measured solubility (mole fraction) goes with Cc1ccc(C(=O)O)cc1 ?
output: 0.0997

* * *

Please respond with reported solubility (mole fraction) for every item in the list.
test_parameters: in n-octanol, 300.15 K
Could you keep your reply to the number by itself?

input: What measured solubility (mole fraction) goes with O=C(O)c1ccccc1 ?
output: 0.192

input: What measured solubility (mole fraction) goes with O=C(O)c1ccccc1[N+](=O)[O-] ?
output: 0.084

* * *

test_parameters: in n-octanol, 297.65 K
observed_property: solubility (mole fraction)

input: What measured solubility (mole fraction) goes with O=C(O)c1ccc(O)cc1 ?
output: 0.105

* * *

test_parameters: in n-octanol, 314.35 K
observed_property: solubility (mole fraction)
Could you keep your reply to the number by itself?

input: What measured solubility (mole fraction) goes with Cc1ccc(C(=O)O)cc1 ?
output: 0.0896

* * *

test_parameters: in n-octanol, 322.15 K
observed_property: solubility (mole fraction)
Could you keep your reply to the number by itself?

input: What measured solubility (mole fraction) goes with Cc1ccc(C(=O)O)cc1 ?
output: 0.104

* * *

test_parameters: in n-octanol, 317.25 K
observed_property: solubility (mole fraction)
Could you keep your reply to the number by itself?

input: What measured solubility (mole fraction) goes with O=C(O)c1ccc(O)cc1 ?
output: 0.124

* * *

test_parameters: in n-octanol, 298.95 K
observed_property: solubility (mole fraction)
Could you keep your reply to the number by itself?

input: What measured solubility (mole fraction) goes with Cc1ccc(C(=O)O)cc1 ?
output: 0.0618

* * *

test_parameters: in n-octanol, 302.05 K
observed_property: solubility (mole fraction)
Could you keep your reply to the number by itself?

input: What measured solubility (mole fraction) goes with O=C(O)c1ccccc1[N+](=O)[O-] ?
output: 0.0895

* * *

test_parameters: in n-octanol, 306.25 K
observed_property: solubility (mole fraction)
Could you keep your reply to the number by itself?

input: What measured solubility (mole fraction) goes with Cc1ccccc1C(=O)O ?
output: 0.2

* * *

test_parameters: in n-octanol, 320.4 K
observed_property: solubility (mole fraction)
Could you keep your reply to the number by itself?

input: What measured solubility (mole fraction) goes with Cc1ccc(C(=O)O)cc1 ?
output: 0.101

* * *

test_parameters: in n-octanol, 297.15 K
observed_property: solubility (mole fraction)

input: What measured solubility (mole fraction) goes with Cc1ccccc1C(=O)O ?
output: 0.155

input: What measured solubility (mole fraction) goes with O=C(O)c1ccccc1[N+](=O)[O-] ?
output: 0.0761
